tested on: P. falciparum stage V gametocytes; set-up: BacTiter-Glo ATP luminescence viability of purified stage V gametocytes in 384-well plates, per cent inhibition versus DMSO; settings: 48 h, 5 µM; inhibitor
Hit rate of the full screen: of about 13,000 compounds, about 3,200 (25%) showed an effect of 50% or more. Some of the results follow.
Entries annotated with measured % Inhibition
Write down the numeric answer in % and omit the unit.

Completed entries (count: 5):
Query: Give a short answer stating reported % Inhibition for Cc1cccc(S(=O)(=O)Nc2cccc(CCN3CCC(N4CCCCC4)CC3)c2)c1 [TCMDC-134087] .
Response: 26.17

Query: Determine from records and report % Inhibition for O=S(=O)(Nc1ccc(CCN2CCC(N3CCCCC3)CC2)cc1)c1ccccc1C(F)(F)F [TCMDC-134080]
Response: 79.99

Query: Consider the compound Cc1cccc2c(N=NC(=S)N(C)C)c(O)[nH]c12 [TCMDC-137626] and give its recorded % Inhibition.
Response: -58.93

Query: State its % Inhibition for this compound: O=S(=O)(Nc1ccc(CCN2CCC(N3CCCCC3)CC2)cc1)c1cccc(C(F)(F)F)c1 [TCMDC-134090]
Response: 84.05

Query: Specify % Inhibition for COc1cccc(Nc2nc(Nc3cccc(C#N)c3)cc(-c3ccncc3)n2)c1 [TCMDC-133447] and stop.
Response: 6.387

***
Query: Indicate the recorded % Inhibition value for this compound: CC[C@H](NC(=O)c1c(CN2CCC(N3CCCCC3)CC2)c(-c2ccccc2)nc2cc(O)ccc12)c1ccccc1 [TCMDC-140381]
Response: 13.93

Query: Tell me its % Inhibition given Cc1nc2ccc3ccc(CNc4ccc(C#N)cc4)cc3c2c(=O)[nH]1 [TCMDC-137846] as the entry.
Response: -36.65

Query: Provide only the value of recorded % Inhibition for O=S(=O)(Nc1cccc(CCN2CCC(N3CCCCC3)CC2)c1)c1ccccc1C(F)(F)F [TCMDC-134070]
Response: 2.875

---

Overview of reported % Inhibition across a group of compounds:
test system: P. falciparum stage V gametocytes; parameters: BacTiter-Glo ATP luminescence viability of purified stage V gametocytes in 384-well plates, per cent inhibition versus DMSO; details: 48 h, 5 µM; inhibitor
The campaign covered roughly 13,000 compounds. About 3,200 (25%) showed an effect of 50% or more. Some of the results follow.
Just the number in %, nothing appended.

Recorded % Inhibition, per entry:
Query: Could you please provide reported % Inhibition for O=C(Nc1cccc(C(F)(F)F)c1)c1cccc(S(=O)(=O)NCC2CCCN(CC3CCCCC3)C2)c1 (stereo not shown) [TCMDC-132770] ? Thanks!
Response: 87.2

Query: Name the recorded % Inhibition of the compound listed here: CC(=O)c1cccc(NC(=O)C2c3ccccc3C(=O)N(CC(C)C)C2c2cccs2)c1 (stereo not shown) [TCMDC-124756]
Response: 54.72

Query: Give a short answer stating reported % Inhibition for Cn1cnc(CCNC(=O)c2ccc(-c3cccc(-c4nc5ccccc5[nH]4)c3)cc2)c1 [TCMDC-132495] .
Response: -19.92

Query: Provide % Inhibition value for the following compound: O=C(CSc1cccc[n+]1[O-])c1ccc(Cc2ncc(C(F)(F)F)cc2Cl)s1 [TCMDC-125823]
Response: 10.92

Others:
Query: Provide % Inhibition value for the following compound: CC(C)(C)OC(=O)Cn1cnc2cc(NC(=O)c3cc([N+](=O)[O-])cc([N+](=O)[O-])c3)ccc21 [TCMDC-131910]
Response: -17.84

Query: Provide only the value of recorded % Inhibition for O=C(Nc1cccc(C(F)(F)F)c1)c1ccc(S(=O)(=O)NCC2CCCN(CC3CCCCC3)C2)cc1 (stereo not shown) [TCMDC-132777]
Response: 92.44

---

system: P. falciparum stage V gametocytes; design: BacTiter-Glo ATP luminescence viability of purified stage V gametocytes in 384-well plates, per cent inhibition versus DMSO; details: 48 h, 5 µM; inhibitor
Among all 13,000 compounds or so, about 3,200 (25%) showed an effect of 50% or more. Some of the results follow.
Experimental Readout: % Inhibition (%)
The reply should be a number in %, with the unit left off.

Please review the entries below; each comes with its answer.
Query: Let me know recorded % Inhibition for Cc1cccc(C)c1OC(=O)CSc1nnc(-c2ccccc2O)o1 [TCMDC-125733] , thanks.
Response: -18.5

Query: Give the measured % Inhibition for CCCCCCCN(Cc1ccc(OC(C)(C)C(=O)OCC)cc1)C(=O)Cc1ccc(F)cc1F [TCMDC-131920]
Response: 13.51

More entries:
Query: Please give the documented % Inhibition of Cc1[nH]c2ccccc2c1C(=O)C(C)Sc1nnc(-c2ccccc2F)o1 (stereo not shown) [TCMDC-125312]
Response: 68.46

Query: For the compound Cc1[nH]c2ccccc2c1C(=O)C(C)Sc1nnc(-c2ccccc2Br)[nH]1 (stereo not shown) [TCMDC-125114] , report % Inhibition.
Response: 93.54

---

tested on: P. falciparum stage V gametocytes; parameters: BacTiter-Glo ATP luminescence viability of purified stage V gametocytes in 384-well plates, per cent inhibition versus DMSO; conditions: 48 h, 5 µM; inhibitor
Out of some 13,000 compounds screened, about 3,200 (25%) showed an effect of 50% or more. The list shows a part of the results.
Reported % Inhibition values for a set of molecules
The reply should be a number in %, with the unit left off.

Observe how each entry below is paired with its result.
Query: Answer with reported % Inhibition of Cc1cc(-c2cccc(CNC3CCCC3)c2)ccc1S(=O)(=O)NCCN1CCCC1
Response: 103.9

Query: Using the record for O=C(NCCNc1ccnc(Nc2ccc(F)cc2)n1)Nc1ccc2c(c1)OCO2 , state its measured % Inhibition.
Response: -26.39

Query: Could you please provide reported % Inhibition for OCC1CCN(Cc2ccc(-c3ccc(-c4nc5ccc(C(F)(F)F)cc5[nH]4)cc3)cc2)CC1 ? Thanks!
Response: -13.18

Now look at this entry.
Query: Give a short answer stating reported % Inhibition for CN1CCC(NCc2cccc(-c3ccc(S(=O)(=O)NCCN4CCCC4)c(F)c3)c2)CC1 .
Response: 88.17

---

The entries below come with measured % Inhibition values attached.
tested on: P. falciparum stage V gametocytes; parameters: BacTiter-Glo ATP luminescence viability of purified stage V gametocytes in 384-well plates, per cent inhibition versus DMSO; settings: 48 h, 5 µM; inhibitor
Hit rate of the full screen: of about 13,000 compounds, about 3,200 (25%) showed an effect of 50% or more. The list shows a part of the results.
I only need the number, in %, no unit after it.

Query: Annotate the compound O=C(N[C@H]1CCN(CCc2ccc(O[C@H]3CCNC3)cc2)C1)c1ccc(Cl)c(Cl)c1 with its measured % Inhibition.
Response: 34.25

---
Query: Recall and state the measured % Inhibition for Cc1cc(N(C)C2CCN(C)C2)nc(Nc2ccc(Cl)cc2)n1 (stereo not drawn) .
Response: 65.31

Query: Annotate the compound Cc1cc2nc(-c3ccc(/C=C/C(=O)NC4CCN(Cc5ccccc5)CC4)cc3)[nH]c2cc1C with its measured % Inhibition.
Response: 78.1

Query: Output measured % Inhibition for this item: Cc1cccc2[nH]c(-c3ccc(-c4ccc(NC(=O)NCc5cccc(F)c5)cc4)cc3)nc12
Response: -5.117

Query: // Input: CCn1cc(CN2CCCC(C(=O)Nc3ccc(-c4nc5ccccc5[nH]4)cc3)C2)c(C)n1 (stereo not drawn) . Output its % Inhibition only.
Response: -63.8

Query: Look up and state reported % Inhibition for O=C(NCc1cccc(F)c1)c1ccc(O)c(-c2cc(Cl)cc(Cl)c2)c1
Response: -3.983

---

tested on: P. falciparum stage V gametocytes; design: BacTiter-Glo ATP luminescence viability of purified stage V gametocytes in 384-well plates, per cent inhibition versus DMSO; conditions: 48 h, 5 µM; inhibitor
The whole screen tested about 13,000 compounds, of which about 3,200 (25%) showed an effect of 50% or more. This is one part of the list.
% Inhibition by entry:
The number alone won't do; follow it with the unit.

Query: # return % Inhibition for Cn1cnc2c(Nc3ccncc3)nc(-c3ccc4ccccc4c3)nc21 [TCMDC-141131] , test system: P. falciparum stage V gametocytes
Response: -3.392%

Query: # lookup: P. falciparum stage V gametocytes % Inhibition, key = Cc1cccc2nc(-c3cccc(-c4ccc(CNCc5ccc(S(C)(=O)=O)cc5)cc4)c3)[nH]c12.O=C(O)C(F)(F)F [TCMDC-132898]
Response: -16.63%

Query: Report value only: % Inhibition, P. falciparum stage V gametocytes, COc1cncc(/C=C/c2cncc(C(=O)NCCc3ccc(Cl)cc3Cl)c2)c1 [TCMDC-134508]
Response: -1.142%

Moving on to another compound below.
Query: Specify % Inhibition for Cc1nc2c(Nc3nc(-c4ccncc4)cs3)ncnc2n1-c1ccccc1Cl [TCMDC-136288] , system P. falciparum stage V gametocytes.
Response: 72.25%
